test system: C57BL/6J mice; assay: The lipid-lowering effect in C57BL/6J mice (high-fat diet); assay type: in vivo; conditions: 2.5 mg/kg orally, HFD, after 21 days
Readout type: LDL-C (mg/dL)

INSERT INTO measurements (compound, test_value) VALUES
  ('CC(C)(Oc1ccc(C(=O)c2ccc(Cl)cc2)cc1)C(=O)O.Cn1c(=O)c2c(ncn2CCN2CCN(c3ccccc3Cl)CC2)n(C)c1=O [KMUP-1-Fibric acid, KMUP-1-fibric acid complex]', 18.4),
  ('Cn1c(=O)c2c(ncn2CCN2CCN(c3ccccc3Cl)CC2)n(C)c1=O.O=C(O)CC(O)(CC(=O)O)C(=O)O [KMUP-1-Citric acid, KMUP-1-Citric acid salt]', 16.4),
  ('Cc1ccc(C)c(OCCCC(C)(C)C(=O)O)c1.Cn1c(=O)c2c(ncn2CCN2CCN(c3ccccc3Cl)CC2)n(C)c1=O [KMUP-1-Gemfibrozil, KMUP-1-gemfibrozil complex]', 18.2),
  ('Cl.Cn1c(=O)c2c(ncn2CCN2CCN(c3ccccc3Cl)CC2)n(C)c1=O [KMUP-1 HCl salt]', 14.17);

* * *

test system: C57BL/6J mice; test: The lipid-lowering effect in C57BL/6J mice (high-fat diet); assay type: in vivo; conditions: 5 mg/kg orally, HFD, after 21 days
Readout type: tot.-C

INSERT INTO results (compound, readout_type, test_value) VALUES
  ('Cl.Cn1c(=O)c2c(ncn2CCN2CCN(c3ccccc3Cl)CC2)n(C)c1=O [KMUP-1 HCl salt]', 'tot.-C', '125.5 ± 9.8 mg/dL'),
  ('CCC(C)(C)C(=O)O[C@H]1C[C@@H](C)C=C2C=C[C@H](C)[C@H](CC[C@@H](O)C[C@@H](O)CC(=O)O)[C@H]21.Cn1c(=O)c2c(ncn2CCN2CCN(c3ccccc3Cl)CC2)n(C)c1=O [KMUP-1-Simvastatinic acid, KMUP-1-Simvastatinic acid complex]', 'tot.-C', '129.7 ± 1.4 mg/dL'),
  ('CCC(C)(C)C(=O)O[C@H]1C[C@@H](C)C=C2C=C[C@H](C)[C@H](CC[C@@H]3C[C@@H](O)CC(=O)O3)[C@H]21 [Simvastatin, simvastatin, reference compound]', 'tot.-C', '133.67 ± 4.3 mg/dL'),
  ('Cn1c(=O)c2c(ncn2CCN2CCN(c3ccccc3Cl)CC2)n(C)c1=O.O=C(O)c1cccnc1 [KMUP-1-Nicotinic acid, KMUP-1-Nicotinic acid salt]', 'tot.-C', '130 ± 4.1 mg/dL');

* * *

test system: C57BL/6J mice; assay: The lipid-lowering effect in C57BL/6J mice (high-fat diet); format: in vivo; details: 5 mg/kg orally, HFD, after 21 days
Readout type: HDL-C (mg/dL)

INSERT INTO assay_data (molecule, target, test_value) VALUES
  ('CCC(C)(C)C(=O)O[C@H]1C[C@@H](C)C=C2C=C[C@H](C)[C@H](CC[C@@H](O)C[C@@H](O)CC(=O)O)[C@H]21.Cn1c(=O)c2c(ncn2CCN2CCN(c3ccccc3Cl)CC2)n(C)c1=O [KMUP-1-Simvastatinic acid, KMUP-1-Simvastatinic acid complex]', 'C57BL/6J mice', 108.4),
  ('Cn1c(=O)c2c(ncn2CCN2CCN(c3ccccc3Cl)CC2)n(C)c1=O.O=C(O)c1cccnc1 [KMUP-1-Nicotinic acid, KMUP-1-Nicotinic acid salt]', 'C57BL/6J mice', 97.98),
  ('Cl.Cn1c(=O)c2c(ncn2CCN2CCN(c3ccccc3Cl)CC2)n(C)c1=O [KMUP-1 HCl salt]', 'C57BL/6J mice', 118.32),
  ('CCC(C)(C)C(=O)O[C@H]1C[C@@H](C)C=C2C=C[C@H](C)[C@H](CC[C@@H]3C[C@@H](O)CC(=O)O3)[C@H]21 [Simvastatin, simvastatin, reference compound]', 'C57BL/6J mice', 103.18);
